# ASSAY_NOTES: chemical genetic growth profiling, strain panel (AID 1159580);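 note: tested at 20 µM; growth read once vehicle control cultures reached saturation at 30 °C; 1 = growth at the plate median or of vehicle wells; lower values mean less growth of the strain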
# PROTOCOL_CONDITIONS: S. cerevisiae deletion strains, growth OD, locus YGR052W, strain FMP48, active compounds read low
Hit rate of the full screen: of about 5,500 compounds, about 2,000 (36%) were called active. Another 18% or so got no clear call; they are omitted. The list shows a part of the results.
Measured normalized growth, listed per entry.
Output spec: single numeric token, no unit.

Below: 5 compounds and their reported normalized growth.
COMPOUND: N#Cc1c(Cl)c(Cl)c(Cl)c(Cl)c1C#N
normalized growth: 0.382

COMPOUND: Cn1c([N+](=O)[O-])cnc1/C=C(\C#N)C(=O)Nc1ccc(F)cc1
normalized growth: 0.305

COMPOUND: O=C(Nc1cc(Cl)cc(Cl)c1)Nc1cc(-c2ccco2)[nH]n1
normalized growth: 0.23

COMPOUND: NCCCN=c1ccc2c3c1c(O)c1c(O)ccc(=O)c1c3[nH]n2CCNCCO
normalized growth: 0.984

COMPOUND: Cc1c(Cl)cccc1NC(=S)N1CCCN(c2nc3ccc(Cl)cc3s2)CC1
normalized growth: 0.975

Task: Give the reported normalized growth for this compound. Cc1c(C(=O)N2CCCCC2)cc(-c2ccccc2)n1-c1ccccc1
Output: 0.947

Task: Let me know recorded normalized growth for O=C(C=C(O)c1ccc(Br)cc1)C(=O)Nc1ccccc1 , thanks.
Output: 0.132

Task: Tell me measured normalized growth for O=C(CCN1CCCCC1)c1ccc(-c2ccccc2)cc1 please.
Output: 0.625

Task: Fill in reported normalized growth for this entry: O=[N+]([O-])c1cc(C(F)(F)F)ccc1-n1ccc(-c2cccs2)n1
Output: 0.933

Task: Read off the recorded normalized growth for CCC(C)c1ccccc1NC(=O)c1cc2cccc([N+](=O)[O-])c2[nH]1 (stereo unspecified)
Output: 0.867

Task: Answer with reported normalized growth of Cc1ccccc1C(=O)N1CCc2c([nH]c3ccccc23)C1C(F)(F)F (stereo unspecified)
Output: 0.955
